Each record here notes measured activation.
tgt: Peroxisome proliferator-activated receptor gamma (Homo sapiens) (UniProt P37231)
Sequence (P37231 whole entry, looked up): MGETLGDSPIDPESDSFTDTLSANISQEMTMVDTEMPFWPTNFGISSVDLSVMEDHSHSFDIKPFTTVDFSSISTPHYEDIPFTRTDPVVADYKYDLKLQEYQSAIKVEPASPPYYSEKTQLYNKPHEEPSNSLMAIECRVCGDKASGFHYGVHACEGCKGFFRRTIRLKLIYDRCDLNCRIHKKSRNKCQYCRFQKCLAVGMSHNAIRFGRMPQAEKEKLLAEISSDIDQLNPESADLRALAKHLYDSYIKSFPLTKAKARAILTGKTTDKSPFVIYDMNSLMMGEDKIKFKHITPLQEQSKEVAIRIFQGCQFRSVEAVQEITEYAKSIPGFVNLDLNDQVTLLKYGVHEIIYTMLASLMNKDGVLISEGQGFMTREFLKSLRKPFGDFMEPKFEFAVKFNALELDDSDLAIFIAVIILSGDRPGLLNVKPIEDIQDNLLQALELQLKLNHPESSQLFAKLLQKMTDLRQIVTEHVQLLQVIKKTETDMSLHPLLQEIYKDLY
experimental.details: PPARgamma agonists recruiting SRC-3 coactivator, primary screen, biochemical (AID 731);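 further: 0% = DMSO and 100% = reference agonist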
details: biochemical PPARgamma/SRC-3 coactivator recruitment assay; at 8 µM; active compounds read high
Screen size: about 200,000 compounds; about 520 (0.26%) were called active. For the sample, actives were picked, then their nearest neighbours and some compounds at random.
Unit % implied. Number only.

Record summary for CCN(CC)c1ccc2c(Nc3ccccc3)c(C=O)c(=O)oc2c1 : reported activation = -1.59

Kindly note the recorded activation for CCN(CC)c1ccc2oc(=O)c(C)nc2c1 , which is 30.3

activation reported for this compound CCS(=O)(=O)Nc1cccc(-c2cc(-c3ccccc3)c3cc(C)ccc3n2)c1 : -3.81

CCN(CC)c1ccc2cc(C(=O)O)c(=O)oc2c1 has a reported activation of 1.62

Looking up COc1ccc(N2CCN(CCCNC(=O)C3CCN(S(=O)(=O)N4CCOCC4)CC3)CC2)cc1 , I see its activation listed as -2.17

Per the records, this compound ( CCOC(=O)C1CCN(C(=O)c2ccccc2N(C)S(=O)(=O)c2ccccc2)CC1 ) has activation equal to 0.82
